Overview of recorded protein stability index for various variants
B1: NET1 (parent)
chain: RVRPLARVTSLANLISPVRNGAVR

Variants of: B1
assayText: protein stability index of a GFP-peptide fusion (GPS, HEK-293T) (PSI 1-6); higher = more stable;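 note: lentivirally expressed fusions sorted by FACS into six bins by GFP to DsRed ratio, PSI derived from sequencing read proportions per bin multiplied by bin number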
conditionSet: c terminus: a fixed tail appended
metricName: protein stability index

N13C : 1.93
V18H : 2.75
N20Y : 2.52
L14D : 4.39
I15C : 2.76
N13T : 3.11
R24N : 2.91
A6R : 3.33
R1I : 2.81
L5V : 3.59
L14W : 4.15
N13I : 2.34
P4C : 1.18
R19G : 3.4
P17T : 2.8
V23N : 3.68
L11Q : 4.39
I15Q : 3.66
V8I : 2.38
N20R : 2.57
A12Y : 2.52
A6S : 2.53
G21F : 2.42
N20T : 2.79
L11E : 3.56
G21W : 2.31
R7L : 2.83
L5N : 2.56
V23D : 3.3
R7M : 2.64
G21C : 2.75
T9K : 3.69
R3V : 2.6
